Target: human ALX receptor (Homo sapiens)
Sequence (P25090 whole entry): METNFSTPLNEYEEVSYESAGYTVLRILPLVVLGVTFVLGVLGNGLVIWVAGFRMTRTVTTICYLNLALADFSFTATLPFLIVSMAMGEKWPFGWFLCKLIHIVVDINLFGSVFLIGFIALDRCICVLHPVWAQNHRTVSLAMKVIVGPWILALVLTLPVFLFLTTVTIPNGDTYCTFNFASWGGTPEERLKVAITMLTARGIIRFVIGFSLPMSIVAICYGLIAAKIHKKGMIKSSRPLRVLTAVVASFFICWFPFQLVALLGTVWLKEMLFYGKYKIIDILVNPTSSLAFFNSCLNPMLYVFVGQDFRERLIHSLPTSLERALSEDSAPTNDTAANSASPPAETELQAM
Test: Intracellular calcium measurements (FLIPR), agonistic activity in HEK293-hALXR-Gα16 cells
Settings: Fluo-4 calcium FLIPR, normalized to WKYMVm 10 nM
Description: The ALX receptor and FPRL2 agonistic activities of the compounds of formula (I) are determined in accordance with the following experimental method. Intracellular Calcium Measurements: Cells expressing recombinant human ALX receptor and the G-protein Gα16 (HEK293-hALXR-Gα16) were grown to 80% confluency in Growing Medium (GM). […] Changes in fluorescence were monitored before and after the addition of test compounds at lex=488 nm and lem=540 nm. […]
endpointName: EC50 (nM)

1) NC(=O)C1CCCCC1NC(=O)C1C(C(=O)Nc2ccc(Br)cc2)C2C=CC1C21CC1 (mixture of isomers) [Example 81]; 100
2) CC(C)(C)OC(=O)NCCCNC(=O)[C@H]1[C@H](C(=O)Nc2ccc(Br)cc2)[C@@H]2C=C[C@H]1C21CC1 (racemic) [Example 57]; 17
3) O=C(NCC1CCCN1)[C@H]1[C@H](C(=O)Nc2ncc(Br)s2)[C@@H]2CC[C@H]1C21CC1 (stereo partly drawn) [Example 416]; 8.3

1 = NCCCCCNC(=O)[C@H]1[C@H](C(=O)Nc2ncc(Br)s2)[C@@H]2C=C[C@H]1C21CC1 (racemic) [Example 302]
2 = O=C(NCCCCN1CCCC1)[C@H]1[C@H](C(=O)Nc2ncc(Br)s2)[C@@H]2CC[C@H]1C21CC1 [Example 238]
3 = CCCN(CC1CC1)C(=O)[C@H]1[C@H](C(=O)Nc2ccc(Br)cc2)[C@@H]2C=C[C@H]1C21CC1 (racemic) [Example 91]
Inquiry: Ordering: ascending EC50. Answer format: list of labels, ordered as asked.
Reply text: 1, 2, 3
